Target: T1, P-cadherin-ECD1-3-Fc protein (human P-cadherin-Fc) (human, UniProt P22223 108-440)
T1 construct: Construct was expressed with signal peptide and pro-peptide (PACE co-transfected to process the propeptide); not shown: hinge and CH2 and CH3 domains of human IgG1
T1 sequence (P22223 108-440): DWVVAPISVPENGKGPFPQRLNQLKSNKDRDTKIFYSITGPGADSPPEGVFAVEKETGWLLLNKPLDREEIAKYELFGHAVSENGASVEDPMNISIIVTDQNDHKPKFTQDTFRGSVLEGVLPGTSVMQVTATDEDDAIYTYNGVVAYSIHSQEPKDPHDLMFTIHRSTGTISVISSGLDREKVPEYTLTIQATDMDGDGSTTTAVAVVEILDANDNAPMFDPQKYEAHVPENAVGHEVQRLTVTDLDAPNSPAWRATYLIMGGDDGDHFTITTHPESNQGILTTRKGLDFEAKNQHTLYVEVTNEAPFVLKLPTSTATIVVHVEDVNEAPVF
Assay: phage scFv ELISA, coated P-cadherin-ECD1-3-Fc
reported_endpoint: % of binding of Clone #153 to human P-cadherin-Fc (%)
Write down the numeric answer in % and omit the unit.

What measured % of binding of Clone #153 to human P-cadherin-Fc goes with anti-P-cadherin scFv 153 alanine-mutant H1.6-Ala (scFv, V domains shown, scFv on phage) VH: EVQLVQSGAEVKKPGASVKVSCKASGYTFTAYGISWVRQAPGQGLEWMGWISAYNGNTNYAQKLQGRVTMTTDTSTSTAYMELRSLRSDDTAVYYCATIDTANAFGIWGQGTMVTVSS VL: QSVLTQPPSVSAAPGQKVTISCSGSSSNIGNNYVSWYQQLPGTAPKLLIYDNNKRPSGIPDRFSGSKSGTSATLGITGLQTGDEADYYCGTWDSSLSGVVFGGGTKLTVL ?
149

Try this binder too: anti-P-cadherin scFv 153 alanine-mutant H2.6-Ala (scFv, V domains shown, scFv on phage) VH: EVQLVQSGAEVKKPGASVKVSCKASGYTFTSYGISWVRQAPGQGLEWMGWISAYAGNTNYAQKLQGRVTMTTDTSTSTAYMELRSLRSDDTAVYYCATIDTANAFGIWGQGTMVTVSS VL: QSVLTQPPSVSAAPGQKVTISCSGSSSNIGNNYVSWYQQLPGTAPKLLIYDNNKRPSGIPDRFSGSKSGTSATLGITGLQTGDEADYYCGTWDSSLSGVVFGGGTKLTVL
80

Try this binder too: anti-P-cadherin scFv 153 alanine-mutant H2.5-Ala (scFv, V domains shown, scFv on phage) VH: EVQLVQSGAEVKKPGASVKVSCKASGYTFTSYGISWVRQAPGQGLEWMGWISAANGNTNYAQKLQGRVTMTTDTSTSTAYMELRSLRSDDTAVYYCATIDTANAFGIWGQGTMVTVSS VL: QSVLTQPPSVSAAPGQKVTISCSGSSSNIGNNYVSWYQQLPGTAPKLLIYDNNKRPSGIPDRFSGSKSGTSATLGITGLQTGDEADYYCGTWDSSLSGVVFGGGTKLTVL
34
